Tested on: EKVX
assay: NCI tumour cell line growth inhibition, 48 h
The source made the active and inactive calls. No stated cut-off is given here; in the data, active = GI50 up to about 1.1 µM and inactive = higher.
valueKind: GI50

# example entries with known answers
>>> recordedmeasurement("CC1=NC2(CCCCC2)N(Cl)C(=O)C1SC#N (stereo unspecified)")
"17.5 µM (inactive)"
>>> recordedmeasurement("C/C(CC1SCCCS1)=C(/C)CC1SCCCS1")
"> 100 µM (inactive)"
>>> recordedmeasurement("COC(=O)C1(SC)C2CCC3C2CCC31 (stereo unspecified)")
"> 100 µM (inactive)"
>>> recordedmeasurement("Oc1nc(S)nc2nc3c4cccnc4c4ccccc4c3nc12")
"> 100 µM (inactive)"
>>> recordedmeasurement("Cc1ccc(/N=N/c2cc(=O)[nH]c(=O)[nH]2)cc1C")
"17.9 µM (inactive)"

Asked: GET /values?readout=GI50&item= Cc1cc(O)c2c(c1)CC(O)C1=C2C(=O)c2c(O)ccc(OC3CC(O)C(OC4CC(OC5CCC(O)C(C)O5)C(O)C(C)O4)C(C)O3)c2C1=O (stereo unspecified)
Given back: 1.89 µM (inactive)

###

Test system: MCF7
assay: NCI tumour cell line growth inhibition, 48 h
The source made the active and inactive calls. No stated cut-off is given here; in the data, active = GI50 up to about 1.1 µM and inactive = higher.
Select the matching outcome among TRUE (active), FALSE (inactive)

Some solved entries appear below for comparison.
>>> labelclass("CC1(C)C(/C=N\\O)=[N+]([O-])C(C)(C)N1O")
"FALSE"
>>> labelclass("CC(C)(C)C(=O)OCC1CCC[N+]2(C)CCCCC12 (centres undefined)")
"FALSE"
>>> labelclass("CC(C)CCC[C@@H](C)C1CCC2[C@@H]3CCC4C[C@@H](NS(C)(=O)=O)CC[C@]4(C)C3CC[C@@]21C (some centres undefined)")
"FALSE"
>>> labelclass("COc1ccc2c(c1)c1c(n2CCN2CCCCC2)-c2ccccc2CC1")
"FALSE"
>>> labelclass("CC1[C@@]2(O[C@@H]3C=C4C5CCC6Cc7nc8c(nc7C[C@@]6(C)C5C[C@H](O)[C@@]4(C)[C@]13O)CC1CCc3c(cc4c5c3C(O)C[C@H]5[C@@H](C)C3(O4)OC(C)(C)CC3O)[C@]1(C)C8)O[C@@](C)(CO)C[C@@H]2O (some centres undefined)")
"TRUE"
>>> labelclass("SC1=Nc2ccccc2-c2nc(-c3cccc(Cl)c3)cc(-c3ccccc3)c2C1")
"FALSE"
>>> labelclass("Nc1nc(Cl)c(N)c(NCC2(CO)CC(Cc3ccccc3)C2)n1 (centres undefined)")
"FALSE"
>>> labelclass("O=C(O)[C@@H]1NC[C@H]2C(Br)=NO[C@H]21")
"FALSE"

Let us examine a further case.
Asked: Per the assay record, what outcome was assigned to O=C1NCN(c2ccccc2)C12CCN(CCc1ccc3[nH]c(=S)[nH]c3c1)CC2 ?
Given back: FALSE

###

System: RXF 631
assay: NCI tumour cell line growth inhibition, 48 h
Calls of active or inactive are those of the source. No stated cut-off is given here; in the data, active = GI50 up to about 1.1 µM and inactive = higher.
valueKind: GI50

# example entries with known answers
>>> recordedmeasurement("O=c1/c(=C/c2ccc(Cl)cc2Cl)sc2nc3ccccc3n12")
"> 100 µM (inactive)"
>>> recordedmeasurement("COC(=O)C1=CCS(=O)(=O)C1")
"> 100 µM (inactive)"
>>> recordedmeasurement("COc1ccc(/C=C2/CSC/C(=C/c3ccc(OC)c(OC)c3)C2=O)cc1OC")
"1.99 µM (inactive)"
>>> recordedmeasurement("O=C1C[C@H](c2ccc(O)c(O)c2)Oc2cc(O)cc(O)c21")
"64.4 µM (inactive)"

Asked: # query: GI50 | item [O-][S+]1Cc2ccccc2CSS1 (centres undefined) | system: RXF 631
Given back: 19.8 µM (inactive)

Asked: # repeat for O=c1[nH]c(=O)n(C2CC(O)C(CO)O2)cc1C#Cc1cc(F)cc(F)c1 (centres undefined)
Given back: > 100 µM (inactive)

Asked: # repeat for O=C1c2ccccc2C(=O)N1C/C=N/NS(=O)(=O)c1ccc2ccccc2c1
Given back: > 100 µM (inactive)

Asked: # repeat for O=C1C=CC2(C=C1)C[C@H](NC(=O)OCc1ccccc1)C(=O)O2
Given back: 19.6 µM (inactive)

Asked: # repeat for COc1ccc(/N=N/c2c(N)nn(C)c2N)cc1
Given back: > 100 µM (inactive)

Reference source for all entries: ChEMBL document CHEMBL1201862
